System: A498 renal
Assay: NCI tumour cell line growth inhibition, 48 h
Readout Type: GI50

# annotated cases, reported GI50 shown
Query block: Entry under review: Cc1ccc(S(=O)(=O)c2nc(-c3ccc(F)cc3)oc2S(C)(=O)=O)cc1 . Reported GI50?
Result block: > 100000 nM

Query block: Entry under review: Cc1cccc(N2CCN(C3=C(Cl)C(=O)c4ncccc4C3=O)CC2)c1 . Reported GI50?
Result block: 13100 nM

Query block: Entry under review: CC(C)=CCC[C@](C)(O)[C@H]1CC[C@]2(C)[C@@H]1CC[C@@H]1[C@@]3(C)CC[C@H](N)C(C)(C)[C@@H]3CC[C@]12C . Reported GI50?
Result block: 1880 nM

---
Query block: Entry under review: CNC(=O)c1c(NC(=O)c2ccccc2C(F)(F)F)sc2c1CCC(=O)C2 . Reported GI50?
Result block: 2090 nM

====

Reported TGI values follow for various compounds
Test system: KM12 colon
Experiment: NCI tumour cell line growth inhibition, 48 h
Lab book: enter the figure in µM, no units written.

Query block: Which TGI is reported with KM12 colon for this entry: CNC(=O)c1c(NC(=O)c2ccccc2C(F)(F)F)sc2c1CCC(=O)C2 ?
Result block: 16.8

---
Query block: Which TGI is reported with KM12 colon for this entry: Cc1cccc(N2CCN(C3=C(Cl)C(=O)c4ncccc4C3=O)CC2)c1 ?
Result block: 36.4

====

Tested on: TK-10 renal
Assay: NCI tumour cell line growth inhibition, 48 h
Reported TGI values follow for various compounds
Lab book: enter the figure in µM, no units written.

Query block: Entry under review: O=C(CSc1nc2ccccc2c(=O)n1-c1ccc(Cl)cc1)N/N=C/c1ccc(Oc2ccc(Cl)cc2)cc1 . Reported TGI?
Result block: 40.2

Next, consider the following compound.
Query block: Entry under review: Cc1cccc(N2CCN(C3=C(Cl)C(=O)c4ncccc4C3=O)CC2)c1 . Reported TGI?
Result block: 8.89

====

Reported GI50 values follow for various compounds
Test system: OVCAR-5 ovarian
Experiment: NCI tumour cell line growth inhibition, 48 h

Query block: Entry under review: COc1cc2c(O[C@@H]3OC[C@H](OC(C)=O)[C@H](OC(C)=O)[C@H]3O)c3c(c(-c4ccc5c(c4)OCO5)c2cc1OC)C(=O)OC3 . Reported GI50?
Result block: 112 nM

Query block: Entry under review: Cc1ccc(S(=O)(=O)c2nc(-c3ccc(F)cc3)oc2S(C)(=O)=O)cc1 . Reported GI50?
Result block: > 100000 nM

Query block: Entry under review: O=C(CSc1nc2ccccc2c(=O)n1-c1ccc(Cl)cc1)N/N=C/c1ccc(Oc2ccc(Cl)cc2)cc1 . Reported GI50?
Result block: 2270 nM

Query block: Entry under review: CNC(=O)c1c(NC(=O)c2ccccc2C(F)(F)F)sc2c1CCC(=O)C2 . Reported GI50?
Result block: 1480 nM

Next, consider the following compound.
Query block: Entry under review: CC(C)=CCC[C@](C)(O)[C@H]1CC[C@]2(C)[C@@H]1CC[C@@H]1[C@@]3(C)CC[C@H](N)C(C)(C)[C@@H]3CC[C@]12C . Reported GI50?
Result block: 1640 nM
